pIC50 by entry:
test system: HCC827; assay: Antiproliferative activity against human HCC827 cells incubated for 72 hrs by MTT assay; format: functional, cell-based; conditions: HCC827, 72 h
pIC50: −log10 of the molar value.
recorded endpoint: pIC50

C=CC(=O)Nc1cccc(Oc2nc(Nc3ccc(CC(=O)N4CCOCC4)cc3)ncc2Cl)c1 | 7.32
C=CC(=O)Nc1ccccc1Nc1nc(Nc2ccc(NC(=O)CN3CCOCC3)cc2)ncc1Cl | 6.31
C=CC(=O)Nc1ccccc1Nc1nc(Nc2ccc(CN3CCOCC3)cc2)ncc1Cl | 6.00
C=CC(=O)Nc1cccc(Nc2nc(Nc3ccc(CC(=O)N4CCOCC4)cc3)ncc2Cl)c1 | 7.24
C=CC(=O)Nc1cccc(Nc2nc(Nc3ccc(CN4CCOCC4)cc3)ncc2F)c1 | 7.39
C=CC(=O)Nc1ccccc1Nc1nc(Nc2ccc(OCC(=O)N3CCOCC3)cc2)ncc1Cl | 6.38
C=CC(=O)Nc1ccccc1Nc1nc(Nc2ccc(OCCCN3CCOCC3)cc2)ncc1Cl | 6.23
C=CC(=O)Nc1cccc(Nc2nc(Nc3ccc(N4CCN(C(C)=O)CC4)cc3OC)ncc2C(F)(F)F)c1 | 7.51
C=CC(=O)Nc1cccc(Nc2nc(Nc3ccc(OCCN4CCOCC4)c(Cl)c3)ncc2Cl)c1 | 7.24

// provenance: ChEMBL document CHEMBL4270490
